- test summary: n-octanol-water partition coefficient, log P at 0.51 MBq after 5 mins by gamma counting
- Assay type: physicochemical
measured attribute: logP at 5 min
The answer should be written as a number, with no unit following it.

The molecule listed as OC1C[C@@H]2CCCC[C@H]2CC1N1CCC(c2ccccc2[125I])CC1 (relative stereo) has a reported logP at 5 min of 2.46

----------
- tested on: Vesicular acetylcholine transporter (Rattus norvegicus, UniProt Q62666)
- test summary: Binding affinity to VAChT in Sprague-Dawley rat cerebral membrane after 1 hr by gamma counting in presence of haloperidol
measured attribute: pKd
Lab note: report pKd as minus log10 of the concentration in molar units, number only.

The molecule listed as OC1C[C@@H]2CCCC[C@H]2CC1N1CCC(c2ccccc2[125I])CC1 (relative stereo) has a reported pKd of 8.76

----------
Reported Ki values are given for each entry in this list.
- test summary: Displacement of [3H]DTG from sigma2 receptor in Sprague-Dawley rat liver membrane after 90 mins by liquid scintillation counting in presence of pentazocine
- Assay type: cell membranes
The answer is to be given in nM; state only the numeric part.

Illustrative cases are given below, each with its answer.
compound: OC1CCCCC1N1CCC(c2ccccc2)CC1 (stereo unspecified)
uom: nM
Ki: 86.7
//
compound: OC1C[C@@H]2CCCC[C@H]2CC1N1CCC(c2ccccc2Br)CC1 (relative stereo)
uom: nM
Ki: 138
//
compound: Cc1ccccc1NC(=N)Nc1ccccc1C
uom: nM
Ki: 31.7

The compound listed as O=C(CCCN1CCC(O)(c2ccc(Cl)cc2)CC1)c1ccc(F)cc1 has a reported Ki of 51.6

The compound listed as OC1C[C@@H]2CCCC[C@H]2CC1N1CCC(c2ccccc2I)CC1 (relative stereo) has a reported Ki of 119

The compound listed as OC1C[C@@H]2CCCC[C@H]2CC1N1CCC(c2ccccc2)CC1 (relative stereo) has a reported Ki of 68.3

----------
- tested on: UniProt:Q62666
- Sequence (Q62666 whole entry): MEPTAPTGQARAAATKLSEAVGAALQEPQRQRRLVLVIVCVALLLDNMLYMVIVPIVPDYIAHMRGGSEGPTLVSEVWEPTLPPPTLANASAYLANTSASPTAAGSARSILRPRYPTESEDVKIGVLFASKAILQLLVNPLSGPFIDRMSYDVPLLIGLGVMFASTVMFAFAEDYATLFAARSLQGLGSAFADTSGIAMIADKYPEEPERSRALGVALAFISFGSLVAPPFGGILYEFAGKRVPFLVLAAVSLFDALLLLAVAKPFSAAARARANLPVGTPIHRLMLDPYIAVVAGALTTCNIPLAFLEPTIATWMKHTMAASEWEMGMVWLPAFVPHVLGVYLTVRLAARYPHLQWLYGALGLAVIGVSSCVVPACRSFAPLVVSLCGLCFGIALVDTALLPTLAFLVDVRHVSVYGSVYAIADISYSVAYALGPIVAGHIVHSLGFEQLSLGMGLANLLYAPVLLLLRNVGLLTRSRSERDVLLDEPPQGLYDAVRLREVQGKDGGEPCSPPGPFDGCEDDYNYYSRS
- test summary: Displacement of (-)-[3H]vesamicol from VAChT in Sprague-Dawley rat cerebral membrane after 60 mins by liquid scintillation counting in presence of DTG
Reported Ki values are given for each entry in this list.
The answer is to be given in nM; state only the numeric part.

molecule: OC1C[C@@H]2CCCC[C@H]2CC1N1CCC(c2ccccc2I)CC1 (relative stereo)
uom: nM
Ki: 20.5

Now, please, on to the next molecule.
Known value: UniProt:Q62666 Ki of the molecule OC1C[C@@H]2CCCC[C@H]2CC1N1CCC(c2ccccc2Br)CC1 (relative stereo) equals 13.8

----------
Reported Ki values are given for each entry in this list.
- tested on: Vesicular acetylcholine transporter (Rattus norvegicus)
- Sequence (Q62666 whole entry): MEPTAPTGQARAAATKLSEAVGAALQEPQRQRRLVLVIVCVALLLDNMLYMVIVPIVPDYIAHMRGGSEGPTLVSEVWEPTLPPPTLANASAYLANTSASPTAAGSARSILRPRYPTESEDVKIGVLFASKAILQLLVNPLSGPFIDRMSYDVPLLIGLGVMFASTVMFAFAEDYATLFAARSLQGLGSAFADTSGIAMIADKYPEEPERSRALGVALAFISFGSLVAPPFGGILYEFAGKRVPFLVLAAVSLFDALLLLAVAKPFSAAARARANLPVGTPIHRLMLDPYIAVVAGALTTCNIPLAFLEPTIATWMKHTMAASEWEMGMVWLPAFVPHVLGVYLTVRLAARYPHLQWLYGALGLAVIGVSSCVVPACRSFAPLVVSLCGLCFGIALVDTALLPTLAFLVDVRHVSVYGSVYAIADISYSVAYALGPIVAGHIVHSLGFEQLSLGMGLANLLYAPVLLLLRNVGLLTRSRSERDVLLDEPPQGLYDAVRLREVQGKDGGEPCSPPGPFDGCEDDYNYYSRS
- test summary: Displacement of [125I]O-iodo-trans-decalinvesamicol from VAChT in Sprague-Dawley rat cerebral membrane after 1 hr by gamma counting
The answer is to be given in nM; state only the numeric part.

molecule: O=C(CCCN1CCC2(CC1)C(=O)NCN2c1ccccc1)c1ccc(F)cc1
measured attribute: Ki
uom: nM
assay value: 1030

The molecule listed as OC1C[C@@H]2CCCC[C@H]2CC1N1CCC(c2ccccc2I)CC1 (relative stereo) has a reported Ki of 28.6

The molecule listed as Cc1ccccc1NC(=N)Nc1ccccc1C has a reported Ki of 1130

The molecule listed as OC1C[C@@H]2CCCC[C@H]2CC1N1CCC(c2ccccc2Br)CC1 (relative stereo) has a reported Ki of 9.3

----------
- tested on: Vesicular acetylcholine transporter (Rattus norvegicus, UniProt Q62666)
- test summary: Binding affinity to VAChT in rat cerebral membrane
- Assay type: cell membranes
measured attribute: Kd (nM)
The answer is to be given in nM; state only the numeric part.

The compound listed as O[C@@H]1CCCCC1N1CCC(c2ccccc2[125I])CC1 (stereo partly specified) has a reported Kd of 17.4

----------
- tested on: Vesicular acetylcholine transporter (Rattus norvegicus)
- test summary: Displacement of [125I]O-iodo-trans-decalinvesamicol from VAChT in Sprague-Dawley rat cerebral membrane after 1 hr by gamma counting
measured attribute: Ki

Illustrative cases are given below, each with its answer.
compound: O=C(c1ccc(F)cc1)C1CCN(CCn2c(=O)[nH]c3ccccc3c2=O)CC1
assay value: > 10 µM

compound: CC(C)=CCN1CC[C@]2(C)c3cc(O)ccc3C[C@H]1[C@H]2C [(+)-PENTAZOCINE]
assay value: > 10 µM

The compound listed as NC[C@H](O)c1ccc(O)c(O)c1 [NOREPINEPHRINE] has a reported Ki of > 10 µM

Cited source: ChEMBL document CHEMBL2062497
